Tested on: TK-10
TEST_DETAILS: NCI tumour cell line growth inhibition, 48 h
Calls of active or inactive are those of the source. No stated cut-off is given here; in the data, active = GI50 up to about 1.1 µM and inactive = higher. Where a SMILES comes first, the peptide text is derived from it. [ ]: non-standard residue; d: D form. Phe(4-NO2) = N[CH](Cc1ccc([N+](=O)[O-])cc1)C(=O)O
Write down one outcome, taken from y for active, n for inactive

What did this assay record as the result for COc1ccccc1C1SCC(=O)N1c1ccc(-n2c(-c3ccccc3)nc3ccccc3c2=O)cc1 (stereo not given) ?
n

What did this assay record as the result for COC(=O)Nc1nc2cc(Br)ccc2[nH]1 ?
n

What did this assay record as the result for CCc1cc(Cc2ccc(C)c(NC(=O)C(=O)C3C(=O)NC(=O)NC3=O)c2CC)cc(C)c1NC(=O)C(=O)C1C(=O)NC(=O)NC1=O ?
n

What did this assay record as the result for COc1ccc(N2C(=O)C(C)SC2c2cc3cc(Br)ccc3nc2Cl)cc1 (stereo not given) ?
n

What did this assay record as the result for CCOC(=O)Cc1cc(=O)[nH]c(-n2[nH]c(C)c(CCO)c2=O)n1 ?
n

What did this assay record as the result for C=C1CC[C@@]2(C)[C@@H]([C@@H]1C)[C@H]1CC[C@@H]3[C@@]4(C)CC[C@H](O)C(C)(C)[C@@H]4CC[C@@]3(C)[C@]1(C)C[C@@H]2O ?
n

What did this assay record as the result for COC(=O)CCC(NC(=O)C(CCC(=O)OC)NC(=O)C(CCC(=O)OC)NC(=O)C(CCC(=O)OC)NC(=O)C(CCC(=O)OC)NC(=O)C(Cc1ccc([N+](=O)[O-])cc1)NC(=O)C(CCC(=O)OC)NC(=O)C(CCC(=O)OC)NC(=O)C(CCC(=O)OC)NC(=O)C(CCC(=O)OC)NC(=O)C(CCC(=O)OC)NC(C)=O)C(N)=O (stereo not given) (Ac-E(OMe)E(OMe)E(OMe)E(OMe)E(OMe)[Phe(4-NO2)]E(OMe)E(OMe)E(OMe)E(OMe)E(OMe)-NH2; configuration not given here) ?
n

What did this assay record as the result for NCCNCC1CCNCC1 ?
n

What did this assay record as the result for C=CCNC1=C(C(=O)OCC)C(=O)CO1 ?
n

----------
System: HT-29
TEST_DETAILS: NCI tumour cell line growth inhibition, 48 h
Activity calls are given as the source filed them. No stated cut-off is given here; in the data, active = GI50 up to about 1.1 µM and inactive = higher.
Write down one outcome, taken from 1 (yes) for active, 0 (no) for inactive

Example cases with answers are listed next.
• CCCCN(CCCC)/C(=N\C#N)NCc1ccccc1 = 0 (no)
• CC(C)=CCC/C(C)=C/CCC(C(=O)COCc1ccccc1)P1(=O)OC(C)(C)CN1C(C)(C)C (centres undefined) = 0 (no)

What did this assay record as the result for C/C(=N\NC(=O)C[n+]1ccccc1)c1sc(-c2nc(C)c(/C(C)=N/NC(=O)C[n+]3ccccc3)s2)nc1C ?
0 (no)

What did this assay record as the result for Oc1cc(-c2ccc[nH]2)nc2cc3c(cc12)OCO3 ?
0 (no)

What did this assay record as the result for CC(C)(Oc1ccc(Cl)cc1)C(=O)N(C(=O)N1CCN(c2ccccc2)CC1)c1ccccc1 ?
0 (no)

What did this assay record as the result for O=C(CCc1ccccc1)On1c(-c2ccccc2)nc2ccccc2c1=S ?
0 (no)

What did this assay record as the result for CC[C@@H]1C[C@H]2CC3c4[nH]c5ccc(O)cc5c4CCN(C2)C31 ?
0 (no)

What did this assay record as the result for CC(=O)c1sc2c(c1O)c(=O)n(-c1ccccc1)c(=S)n2-c1ccccc1 ?
0 (no)

What did this assay record as the result for COc1cc(/C=C2\[C@H]3c4c(c(OC)c(C)c(OC)c4OC)C[C@@H](C(=O)N2Cc2ccccc2)N3C(=O)OCC(C)C)c(OC)c(C)c1OC ?
0 (no)

What did this assay record as the result for CNc1ccc(Cl)cc1S(=O)(=O)c1ccccc1[N+](=O)[O-] ?
0 (no)

What did this assay record as the result for O=C(NC12CC3CC(CC(C3)C1)C2)C(=O)c1c[nH]c2ccc([N+](=O)[O-])cc12 ?
0 (no)

What did this assay record as the result for O=S(=O)(Oc1ccc2oc3ccccc3c2c1-c1c(OS(=O)(=O)C(F)(F)F)ccc2oc3ccccc3c12)C(F)(F)F ?
0 (no)

What did this assay record as the result for Cc1oc2c(c1C)S(=O)(=O)C(C#N)=C(c1ccccc1)N2 ?
0 (no)

What did this assay record as the result for CCCCOC(=O)NC(Nc1ccc(S(=O)(=O)Nc2ccc(OC)nn2)cc1)(C(F)(F)F)C(F)(F)F ?
0 (no)

What did this assay record as the result for CC(=O)O[C@H]1C(=O)[C@@]2(C)[C@H]([C@H](OC(=O)c3ccccc3)[C@]3(O)C[C@H](OC(=O)[C@H](O)[C@@H](NC(=O)c4ccccc4)c4ccccc4)C(C)=C1C3(C)C)[C@]1(OC(C)=O)CO[C@@H]1C[C@@H]2O [PACLITAXEL] ?
1 (yes)

Just for reference, ChEMBL document CHEMBL1201862 is where these values come from.
